Provenance of the data: patent US12492188B2

# test.system: human TLR9 (Homo sapiens)
# Construct: host or cells: HEK-Blue cells (HEK293-derived reporter line)
# Sequence (Q9NR96 26-1032): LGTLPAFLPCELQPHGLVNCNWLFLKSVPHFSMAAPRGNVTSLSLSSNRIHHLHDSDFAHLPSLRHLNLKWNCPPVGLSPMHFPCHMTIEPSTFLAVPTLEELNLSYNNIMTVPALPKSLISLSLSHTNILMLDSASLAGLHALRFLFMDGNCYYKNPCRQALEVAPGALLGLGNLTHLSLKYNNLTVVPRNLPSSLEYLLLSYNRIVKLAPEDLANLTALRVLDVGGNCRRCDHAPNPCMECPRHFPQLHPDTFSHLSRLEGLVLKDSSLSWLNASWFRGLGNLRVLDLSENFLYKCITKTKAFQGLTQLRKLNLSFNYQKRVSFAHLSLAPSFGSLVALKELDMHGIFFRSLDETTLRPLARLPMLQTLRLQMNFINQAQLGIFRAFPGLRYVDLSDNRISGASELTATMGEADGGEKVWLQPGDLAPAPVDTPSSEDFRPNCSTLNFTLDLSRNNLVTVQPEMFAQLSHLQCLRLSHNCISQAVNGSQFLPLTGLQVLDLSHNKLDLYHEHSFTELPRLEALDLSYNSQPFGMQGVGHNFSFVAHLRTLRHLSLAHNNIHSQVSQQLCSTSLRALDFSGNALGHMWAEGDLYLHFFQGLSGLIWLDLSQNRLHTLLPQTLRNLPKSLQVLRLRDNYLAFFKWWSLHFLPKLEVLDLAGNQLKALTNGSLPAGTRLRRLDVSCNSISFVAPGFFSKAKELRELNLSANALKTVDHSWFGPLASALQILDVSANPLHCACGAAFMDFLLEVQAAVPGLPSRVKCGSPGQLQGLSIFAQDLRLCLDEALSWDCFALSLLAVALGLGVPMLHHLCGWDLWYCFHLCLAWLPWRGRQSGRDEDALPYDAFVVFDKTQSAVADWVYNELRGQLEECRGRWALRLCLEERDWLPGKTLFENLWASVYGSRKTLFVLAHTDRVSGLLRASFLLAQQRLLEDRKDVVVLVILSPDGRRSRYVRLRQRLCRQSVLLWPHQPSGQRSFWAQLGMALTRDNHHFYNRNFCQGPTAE
# method.summary: TLR9 inhibition reporter assay (HEK-Blue cells, secreted embryonic alkaline phosphatase reporter)
# Format: cell-based
# conditions.used: HEK-Blue cells overexpressing human TLR9, stimulated with ODN2006 5 nM; read-out: TLR 9 IC50
pIC50: −log10 of the molar value.
measured.quantity: pIC50

[I] Cn1c(-c2ccc(S(C)(=O)=O)cc2)nc2cc(C3CCN(C4CC5CCC(C4)N5C4CCOCC4)CC3)cc(F)c21 (stereo not shown) [Example 212]
[II] Cc1cc(C2CCN(C3CC4CCC(C3)N4CC3CC3)CC2)cc2[nH]c(-c3ccc(S(C)(=O)=O)c(F)c3)nc12 (stereo not shown) [Example 352]
[III] Cn1c(-c2ccc(S(C)(=O)=O)cc2)nc2ccc(C3CCN(C4CCCN(C5COC5)CC4)CC3)c(F)c21 (stereo not shown) [Example 314]
### Prompt Please produce an ascending ranking of these molecules based on pIC50. Lab note: record answer as labels in requested order.
### Response I, III, II

###

# test.system: human TLR7 (Homo sapiens, UniProt Q9NYK1)
# Sequence (Q9NYK1 27-1049): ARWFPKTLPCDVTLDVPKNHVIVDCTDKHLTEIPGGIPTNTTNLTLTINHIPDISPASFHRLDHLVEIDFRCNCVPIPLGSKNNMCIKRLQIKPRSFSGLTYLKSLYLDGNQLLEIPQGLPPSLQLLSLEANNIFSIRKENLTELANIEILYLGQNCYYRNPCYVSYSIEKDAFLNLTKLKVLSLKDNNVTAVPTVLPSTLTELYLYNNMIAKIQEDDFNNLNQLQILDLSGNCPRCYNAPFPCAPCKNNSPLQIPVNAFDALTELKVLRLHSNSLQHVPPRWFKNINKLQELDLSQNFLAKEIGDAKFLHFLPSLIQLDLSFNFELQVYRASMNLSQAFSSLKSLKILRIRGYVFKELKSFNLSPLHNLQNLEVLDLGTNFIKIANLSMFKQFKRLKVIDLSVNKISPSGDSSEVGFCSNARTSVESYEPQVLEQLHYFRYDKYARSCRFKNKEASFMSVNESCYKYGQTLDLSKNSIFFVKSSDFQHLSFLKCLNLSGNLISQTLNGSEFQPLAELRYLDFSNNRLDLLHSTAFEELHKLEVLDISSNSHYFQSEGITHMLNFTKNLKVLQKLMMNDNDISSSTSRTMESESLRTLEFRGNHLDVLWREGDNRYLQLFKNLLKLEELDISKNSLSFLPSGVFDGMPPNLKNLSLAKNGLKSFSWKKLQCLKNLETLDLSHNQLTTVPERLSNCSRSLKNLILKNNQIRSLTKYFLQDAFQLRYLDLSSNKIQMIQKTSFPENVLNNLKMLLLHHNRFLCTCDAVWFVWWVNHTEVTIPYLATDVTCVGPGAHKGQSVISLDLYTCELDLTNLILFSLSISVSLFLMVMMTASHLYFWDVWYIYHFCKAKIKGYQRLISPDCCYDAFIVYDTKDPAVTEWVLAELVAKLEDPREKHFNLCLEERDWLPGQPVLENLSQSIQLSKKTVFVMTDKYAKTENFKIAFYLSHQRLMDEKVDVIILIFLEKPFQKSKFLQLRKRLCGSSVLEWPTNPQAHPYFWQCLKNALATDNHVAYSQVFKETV
# method.summary: TLR7 inhibition reporter assay (HEK-Blue cells, secreted embryonic alkaline phosphatase reporter)
# conditions.used: HEK-Blue cells overexpressing human TLR7, stimulated with gardiquimod 7.5 μM; read-out: TLR 7 IC50
measured.quantity: IC50 (µM)

compound	test.system	IC50 [µM]
COc1ccc(-c2nc3c(C)cc(C4CCN(C5CCN(C(C)C)CC5)CC4)cc3n2C)cc1OC [Example 45]	human TLR7 (Homo sapiens, UniProt Q9NYK1)	11
COCCN1C2CCC1CC(N1CCC(c3cc4nc(-c5ccc(S(C)(=O)=O)cc5)n(C)c4cc3F)CC1)C2 (stereo not shown) [Example 258]	human TLR7 (Homo sapiens, UniProt Q9NYK1)	18.8

[P] Cc1cc(C2CCN(C3CCN(C4CC4)CC3)CC2)cc2c1nc(-c1ccc(S(C)(=O)=O)cc1)n2C [Example 53]
[Q] CC(C)CN1CCCC(N2CCC(c3cc(F)c4nc(-c5ccc(S(C)(=O)=O)cc5)n(C)c4c3)CC2)CC1 (stereo not shown) [Example 296]
### Prompt Which of these two has the smaller recorded IC50: P or Q ? Answer with the label corresponding to your selection.
### Response Q
(Q: 14.1 µM, P: 24 µM)

###

# test.system: human TLR7 (Homo sapiens)
# method.summary: TLR7 inhibition reporter assay (HEK-Blue cells, secreted embryonic alkaline phosphatase reporter)
# conditions.used: HEK-Blue cells overexpressing human TLR7, stimulated with gardiquimod 7.5 μM; read-out: TLR 7 IC50
pIC50: −log10 of the molar value.
measured.quantity: pIC50

Here are 5 molecules together with their reported answers.
molecule	pIC50
Cc1cc(C2CCN(C3CCN(CC(C)C)CC3)CC2)cc2c1nc(-c1ccc(S(C)(=O)=O)cc1)n2C [Example 52]	5.32
Cc1cc(C2CCN(C3CCN(C(C)C)CC3)CC2)cc2c1nc(-c1ccc(S(C)(=O)=O)c(F)c1)n2C [Example 122]	5.05
Cn1c(-c2ccc(S(C)(=O)=O)cc2)nc2c(F)cc(C3CCN(C4CC5CCC(C4)N5C4CCOCC4)CC3)cc21 (single isomer, unassigned) [Example 288]	4.50
CC(C)N1C2CCC1CC(N1CCC(c3cc(F)c4nc(-c5ccc(S(C)(=O)=O)cc5)n(C)c4c3)CC1)C2 (single isomer, unassigned) [Example 106]	4.45
Cc1cc(-c2ccc(C3CCN(C(C)C)CC3)nc2)cc2c1nc(-c1ccc(S(C)(=O)=O)cc1)n2C [Example 365]	5.68

[I] Cn1c(-c2ccc(S(C)(=O)=O)cc2)nc2ccc(C3CCN(C4CC5CCC(C4)N5C4COC4)CC3)c(F)c21 (centres unmarked) [Example 273]
[II] CCN1CCCN(Cc2ccc(-c3cc(C)c4nc(-c5ccc(S(C)(=O)=O)cc5)n(C)c4c3)cc2F)CC1 [Example 389]
[III] Cn1c(-c2ccc(S(C)(=O)=O)cc2)nc2cc(C3CCN(C4CCN(CC5CC5)CC4)CC3)c(F)cc21 [Example 242]
### Prompt Sort by pIC50, descending. Output spec: labels arranged per the requested ranking.
### Response II, I, III

[a] Cc1cc(-c2ccc(N3CCC(N4CCCC4)CC3)cc2)cc2c1nc(-c1ccc(S(C)(=O)=O)cc1)n2C [Example 367]
[b] Cc1cc(-c2ccc(CN3CC4(C3)CN(C(C)C)C4)cc2)cc2c1nc(-c1ccc(S(C)(=O)=O)cc1)n2C [Example 399]
### Prompt Would you kindly point out which of a and b has the smaller pIC50 figure? Field: selected label. Fill in the label of the entry you choose.
### Response a
(a: 5.64, b: 6.00)
